Data origin: patent US20250296938A1

Reported values of inhibition at 20 µM for individual entries
target: Rac-1 (Homo sapiens); experiment: Ras GTP binding domain inhibition assay (Cy3-GTP/Cy5-GTP competition); conditions: with SOS, read-out: Rac-1 + SOS: % inh.
reported property: inhibition at 20 µM

>  <compound>
COCCn1cc(-c2sc3nc(-c4nccn4C)nc(N4CCC(OC)C4)c3c2-c2ccccc2)cn1 (stereo not drawn) [drawing 976]

>  <reported property>
inhibition at 20 µM

>  <result>
51 to 75%

$$$$
>  <compound>
COc1cccc(Cn2ccnc2-c2nc(O)c3scc(-c4ccc(OCC(C)C)nc4)c3n2)c1 [drawing 1035]

>  <reported property>
inhibition at 20 µM

>  <result>
76 to 100%

$$$$
>  <compound>
CC(C)CN(C)C(=O)c1nc(-c2ccccn2)nc(O)c1O [drawing 933]

>  <reported property>
inhibition at 20 µM

>  <result>
26 to 50%

$$$$
>  <compound>
COCCNc1nc(-c2cn(C)cn2)nc2sc(-c3ccccc3Cl)c(-c3ccc(OC)cc3)c12 [drawing 1008]

>  <reported property>
inhibition at 20 µM

>  <result>
26 to 50%

$$$$
>  <compound>
COc1ccc(Oc2nc(-c3ccccn3)nc(O)c2OC)cc1 [drawing 950]

>  <reported property>
inhibition at 20 µM

>  <result>
51 to 75%

$$$$
>  <compound>
O=C(c1nc(-c2ccccn2)nc(O)c1O)N1CCCC1 [drawing 966]

>  <reported property>
inhibition at 20 µM

>  <result>
26 to 50%

$$$$
